These entries and their values trace back to ChEMBL document CHEMBL3988442.

Recorded Percent Effect by entry
molecular target: Sialic acid-binding Ig-like lectin 9 (Homo sapiens); test: Hs-Siglec9 ALPHAscreen SOP 20170721; set-up: scale not given: direction of the effect not stated beside the values; conditions: 10 µM
Kindly answer with a numeric value in %, unit omitted.

Worked set:
- molecule: "CC(=O)N1CCC(Cc2cnc(-c3c(C)n[nH]c3C)cn2)C1 (configuration not stated)"
  Percent Effect / %: -2.02
- molecule: "COc1ccccc1C(=O)NC(C)CC(=O)O (configuration not stated)"
  Percent Effect / %: -1.14
- molecule: "O=C(NCCNCC1CNc2ccnn2C1)c1ccc(F)cc1 (configuration not stated)"
  Percent Effect / %: 25.4
- molecule: "CC(C)c1nccn1CCCNC(=O)c1ccc(N(C)C)nc1"
  Percent Effect / %: 14

QUERY: Provide Percent Effect value for the following molecule: c1ccc(-c2nc(CN3CCCC3Cn3cncn3)cs2)cc1 (configuration not stated)
RESULT: 4.03

QUERY: Provide Percent Effect value for the following molecule: COC(=O)CS(=O)(=O)CCC(=O)N1CCCC1c1ccsc1 (configuration not stated)
RESULT: 21.4

QUERY: Provide Percent Effect value for the following molecule: CCn1c(C)nnc1CN(C)C1CCN(Cc2nccn2C)C1 (configuration not stated)
RESULT: -4.6

QUERY: Provide Percent Effect value for the following molecule: CC(c1nc(C(C)(C)C)no1)N1CCN(CC(=O)N2CCOCC2)CC1 (configuration not stated)
RESULT: 12.9

QUERY: Provide Percent Effect value for the following molecule: `Cc1ncsc1C(=O)N1CCCN(Cc2cscn2)CC1`
RESULT: 0.904

---

molecular target: AMP-activated protein kinase, AMPK (Homo sapiens) (UniProt P54646+O43741+P54619+Q9UGJ0+Q9Y478+Q13131+Q9UGI9); experiment: AMP-dependent Kinase enzyme assay. An in vitro enzyme assay that detects ADP turnover that is directly proportional to AMPK activity. This uses naive AMPK that is activated during the assay with MK-8722; type: functional; parameters: scale not given: direction of the effect not stated beside the values; conditions: 30 µM
measured.quantity: Percent Effect (%)
Kindly answer with a numeric value in %, unit omitted.

Worked set:
- compound: "O=C(N1CCCCC1)N1CCN(CC(O)c2ccc(F)cc2)CC1 (centres undefined)"
  unit.symbol: "%"
  number: -0.12
- compound: "c1ccc(-c2cnc(CN3CCn4c(nnc4C4CC4)C3)o2)cc1"
  unit.symbol: "%"
  number: -0.492
- compound: "COc1ccccc1OCCN1CCCC(c2noc(C3CC3)n2)C1 (centres undefined)"
  unit.symbol: "%"
  number: -2.32
- compound: "CCN(CCC(F)(F)F)C(=O)Nc1cccc(N2CCOCC2)c1"
  unit.symbol: "%"
  number: -8.53
- compound: "CC1CCN(C(=O)CN(Cc2ccco2)C2CC2)CC1"
  unit.symbol: "%"
  number: 6.73

Here is the next item to consider.
QUERY: Provide Percent Effect value for the following compound: `Cc1nc(CN2C[C@@H]3CN(C(=O)C4CC4)C[C@@H]3C2=O)cs1`
RESULT: 1.84

---

species: Homo sapiens; experiment: To identify inhibition of the IFN signalling (Jak-Stat) pathway via expression of an eGFP reporter gene under the control of an IFN-stimulated response element (ISRE) containing MxA promoter.; assay type: functional; design: scale not given: direction of the effect not stated beside the values; conditions: 30 µM
measured.quantity: Percent Effect (%)
Kindly answer with a numeric value in %, unit omitted.

Worked set:
- compound: "c1cnnc(N2CCCC2CNc2nc3ccccc3o2)c1 (configuration not stated)"
  Percent Effect (%): 11.9
- compound: "CCCC(=O)N1CCC(O)(Cn2c(CC)nc3ccccc3c2=O)CC1"
  Percent Effect (%): 17.3
- compound: "O=C(c1ccc[nH]1)N1CCc2c(COCC3CC3)cncc2C1"
  Percent Effect (%): 0.5
- compound: "CN(Cc1nnc(C2CC2)n1C)C1CCN(Cc2ccc(F)cc2)C1 (configuration not stated)"
  Percent Effect (%): 5.85
- compound: "COCC1CN(C(=O)c2cccn2C)Cc2nccn2C1 (configuration not stated)"
  Percent Effect (%): 10.6

Here is the next item to consider.
QUERY: Provide Percent Effect value for the following compound: CCCc1nc(CN2CCOC(Cn3cncn3)C2)no1 (configuration not stated)
RESULT: 18.7

---

target: Proteasome subunit beta (Trypanosoma cruzi) (UniProt O96673); experiment: Trypanosoma cruzi proteasome chymotrypsin-like activity (TcProtChymo) assay.; type: functional; design: scale not given: in the data most compounds retested in dose-response had high values; settings: 9.37 µM
Sequence (O96673 as listed by the source): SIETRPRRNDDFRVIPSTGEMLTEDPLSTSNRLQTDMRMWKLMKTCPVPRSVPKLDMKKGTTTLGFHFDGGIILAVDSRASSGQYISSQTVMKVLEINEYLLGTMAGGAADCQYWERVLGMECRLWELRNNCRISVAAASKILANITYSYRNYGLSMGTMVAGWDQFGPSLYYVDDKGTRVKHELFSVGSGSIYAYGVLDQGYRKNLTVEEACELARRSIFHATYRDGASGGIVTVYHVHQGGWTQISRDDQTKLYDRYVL
measured.quantity: Percent Effect (%)
Kindly answer with a numeric value in %, unit omitted.

Worked set:
- compound: "COCC1c2nnn(CC3CC3)c2CCN1C(=O)c1cccc(F)c1 (stereo not drawn)"
  unit.symbol: "%"
  number: 3
- compound: "CN(Cc1ccncc1)C(=O)Nc1cnn(CC2CCCO2)c1 (stereo not drawn)"
  unit.symbol: "%"
  number: 20
- compound: "CCCNC(=O)COc1ccc(C)cn1"
  unit.symbol: "%"
  number: 6.59
- compound: "Fc1ccc(CN2CCCN(Cc3cscn3)CC2)cc1"
  unit.symbol: "%"
  number: 9.46
- compound: "O=C(NCC(F)F)N1CCC(n2ccc(C(F)(F)F)n2)CC1"
  unit.symbol: "%"
  number: 10.3

QUERY: Tell me Percent Effect of CC(Cn1cccn1)NCc1nc(-c2cccc(Cl)c2)no1 (stereo not drawn) when tested on Proteasome subunit beta (Trypanosoma cruzi) (UniProt O96673).
RESULT: 5.33

QUERY: Tell me Percent Effect of `COc1ccc(C(=O)N(C)Cc2nnc3ccccn23)c(OC)c1` when tested on Proteasome subunit beta (Trypanosoma cruzi) (UniProt O96673).
RESULT: 12.5

QUERY: Tell me Percent Effect of `CCO[C@@H]1CO[C@@]2(CCCN(C(=O)c3ccc(OC)c(F)c3)C2)C1` when tested on Proteasome subunit beta (Trypanosoma cruzi) (UniProt O96673).
RESULT: 16.5

QUERY: Tell me Percent Effect of `CC(C)c1ncncc1C(=O)N1CCN(Cc2cscn2)CC1` when tested on Proteasome subunit beta (Trypanosoma cruzi) (UniProt O96673).
RESULT: 5.03

QUERY: Tell me Percent Effect of `CCOc1cccc(NS(=O)(=O)c2cc(C)c(C(=O)O)s2)c1` when tested on Proteasome subunit beta (Trypanosoma cruzi) (UniProt O96673).
RESULT: 6.27

QUERY: Tell me Percent Effect of `Cc1nc(C)c(CC(=O)Nc2nnc(C)s2)c(=O)[nH]1` when tested on Proteasome subunit beta (Trypanosoma cruzi) (UniProt O96673).
RESULT: 7.85

QUERY: Tell me Percent Effect of `CN(C)C(=O)N1CCN(Cc2ccccc2)[C@@H]2CS(=O)(=O)C[C@@H]21` when tested on Proteasome subunit beta (Trypanosoma cruzi) (UniProt O96673).
RESULT: 10.9

QUERY: Tell me Percent Effect of `CN(C(=O)c1cccc2[nH]ncc12)C1CCN(c2ccccn2)CC1` when tested on Proteasome subunit beta (Trypanosoma cruzi) (UniProt O96673).
RESULT: -4.12

QUERY: Tell me Percent Effect of CC(NC(=O)NCc1cc[nH]n1)c1ccc2c(c1)CCC(=O)N2 (stereo not drawn) when tested on Proteasome subunit beta (Trypanosoma cruzi) (UniProt O96673).
RESULT: 4.9

QUERY: Tell me Percent Effect of CC(=O)N(C)c1nc(CN2CCOC(Cn3cc(C)cn3)C2)cs1 (stereo not drawn) when tested on Proteasome subunit beta (Trypanosoma cruzi) (UniProt O96673).
RESULT: 17.4

QUERY: Tell me Percent Effect of `COc1cccc(CN2CCC(c3nccn3C(C)C)CC2)c1` when tested on Proteasome subunit beta (Trypanosoma cruzi) (UniProt O96673).
RESULT: 11.5

QUERY: Tell me Percent Effect of `Cc1ccc(CC(=O)NCCCNS(C)(=O)=O)cc1` when tested on Proteasome subunit beta (Trypanosoma cruzi) (UniProt O96673).
RESULT: 14.8

QUERY: Tell me Percent Effect of `COc1cc(C)sc1C(=O)N1CC(c2cccnc2)C1` when tested on Proteasome subunit beta (Trypanosoma cruzi) (UniProt O96673).
RESULT: 9.65

QUERY: Tell me Percent Effect of `CCOCC(=O)NC1(c2cccc(Br)c2)CC1` when tested on Proteasome subunit beta (Trypanosoma cruzi) (UniProt O96673).
RESULT: 7.76

---

Recorded Percent Effect by entry
test system: Trypanosoma cruzi; assay: Trypanosoma cruzi phosphomannomutase and mannose-1-phosphate guanylyltransferase assay; format: functional; set-up: scale not given: direction of the effect not stated beside the values; conditions: 10 µM
Quick note: unit goes after the number.

QUERY: Provide Percent Effect value for the following molecule: `CN(CCc1ccccc1)c1cnn(CC(=O)N2CCSCC2)c(=O)c1`
RESULT: -4.5%

---

biological target: Arginase-2, mitochondrial (Homo sapiens); assay: in vitro enzyme assay to detect the production of urea directly proportional to the activity of Arginase II; assay type: functional; parameters: scale not given: in the data most compounds retested in dose-response had high values; details: 33.3 µM
measured.quantity: Percent Effect (%)
Kindly answer with a numeric value in %, unit omitted.

Worked set:
- molecule: "CC(C)(C)CC(=O)N1CC[C@@H]2[C@H](CC1)N(S(C)(=O)=O)CCS2(=O)=O"
  number: 15
- molecule: "N#Cc1cnn(-c2ccc(C(=O)Nc3ccccn3)cc2)c1N"
  number: -6.46

QUERY: Tell me Percent Effect of `Cn1cnc2c1CCN(CCCOc1ccc(C#N)cc1)C2` when tested on Arginase-2, mitochondrial (Homo sapiens).
RESULT: -1.14

QUERY: Tell me Percent Effect of `O=C(NCCN1CCC(c2cccs2)CC1)c1ccccc1C(F)(F)F` when tested on Arginase-2, mitochondrial (Homo sapiens).
RESULT: 17.7

QUERY: Tell me Percent Effect of `CCN1CCN(C2CCN(Cc3ncc(C(C)(C)C)o3)CC2)C1=O` when tested on Arginase-2, mitochondrial (Homo sapiens).
RESULT: -1.47

QUERY: Tell me Percent Effect of `c1ccc(-c2noc(CN3CCC(c4ccn[nH]4)CC3)n2)cc1` when tested on Arginase-2, mitochondrial (Homo sapiens).
RESULT: 26.2

QUERY: Tell me Percent Effect of O=C(NCc1cc(=O)n2c(n1)CN(CC1CCOC1)CCC2)C1CC1 (stereo unspecified) when tested on Arginase-2, mitochondrial (Homo sapiens).
RESULT: -0.399

QUERY: Tell me Percent Effect of N#Cc1ccc(N2CCCN(C(=O)CC3CCCO3)CC2)cc1 (stereo unspecified) when tested on Arginase-2, mitochondrial (Homo sapiens).
RESULT: -5.61

QUERY: Tell me Percent Effect of CC(Cn1cccn1)NC(=O)N(C)Cc1ccc(Cl)s1 (stereo unspecified) when tested on Arginase-2, mitochondrial (Homo sapiens).
RESULT: -8.37

QUERY: Tell me Percent Effect of `CCCNC(=O)CNc1cc(C#N)ccc1OCC` when tested on Arginase-2, mitochondrial (Homo sapiens).
RESULT: -6.46

QUERY: Tell me Percent Effect of `CS(=O)(=O)NCc1n[nH]c2c1CCN(C(=O)c1ccsc1)C2` when tested on Arginase-2, mitochondrial (Homo sapiens).
RESULT: -59.7
